target.entity: HIV-1 integrase (Human immunodeficiency virus 1 (BH10), UniProt P03366 P03366:1160-1447)
assay.remarks: FP filter; nitrocellulose filter; 250 mM NaCl, 10 mM MnCl2, pH 7.5, 37 C
study.conditions: tags: gift of Agouron Pharmaceuticals; BH10 clone; stem-loops with GNRA tetraloop and putative pseudoknot (11-14 with 28-31)
assay.readout: Kd (nM)
Lab book: enter the figure in nM, no units written.

Give the measured Kd for P5 (ssRNA) RNA: GGGAGCUCAGAAUAAACGCUCAACCAGUCUUGUGGCUUUGAAAGAGAGGAGUGUUCGACAUGAGGCCCGGAUCCGGC
12
